Please go through the items and note down their Blood anticoagulating activity (PT2).
Tested on: blood plasma from healthy people (prothrombin time)
protocol_description: Determination of blood anticoagulating activity by prothrombin time (PT) determination method
Format: biochemical
condition_notes: negative logarithm of concentration which elongated PT of the control to twice as long; human blood plasma
Answers are plain numbers.

Sample answers from the record:
# compound, target_desc, Blood anticoagulating activity (PT2)
data = [
    ("Nc1nccc2ccc(OC[C@@H](CCC(=O)O)NC(=O)c3ccc(C(=O)N4CCCC4)cc3)cc12 [Compound of Ex. 16, mono-trifluoroacetate]", "blood plasma from healthy people (prothrombin time)", 5.6),
    ("Nc1nccc2cc(CC(=O)C(=O)O)c(OCCNC(=O)C3CCN(c4ccncc4)CC3)cc12", "blood plasma from healthy people (prothrombin time)", 6.2),
    ("Nc1nccc2ccc(OCCNC(=O)c3ccc(C(=O)N4CCCC4)cc3)cc12 [Compound of Ex. 2, mono-trifluoroacetate]", "blood plasma from healthy people (prothrombin time)", 5.5),
]

Please examine the following record next.
Task: Query: Blood anticoagulating activity (PT2); subject: CC(=N)N1CCC(Oc2ccc(C(=O)NCCOc3cc4c(N)nccc4cc3CC(=O)C(=O)O)cc2)CC1 [Compound of Ex. 26, bistrifluoroacetate]
Output: 6.2
